Cited source for all entries: the Immune Epitope Database (IEDB)

target: HLA-A*68:01
measurement-notes: IEDB peptide-MHC binding, purified MHC/competitive/radioactivity; filed as Kd, often an IC50 or EC50 that approximates it; bounds were set here for any values at or beyond the usual limits of such assays
condition-notes: source organism: Vaccinia virus WR
pKd: −log10 of the molar value.
experimental-endpoint: pKd

>>> result("YIVHSYLKNY")
"≤ 4.15"
>>> result("WVSLKKTNDK")
"≤ 4.34"
>>> result("MSTYSDICSK")
"≤ 4.15"
>>> result("KSINKVYGRY")
"≤ 4.47"
>>> result("CLEWLRAKRK")
"≤ 4.24"

---

Quick reference for Kd among some sequences
target: HLA-B*18:01
measurement-notes: IEDB peptide-MHC binding, purified MHC/competitive/radioactivity; filed as Kd, often an IC50 or EC50 that approximates it; bounds were set here for any values at or beyond the usual limits of such assays
condition-notes: source organism: SARS coronavirus Tor2
experimental-endpoint: Kd

>>> result("QECNNMHLST")
"≥ 70.5 µM"
>>> result("CEKALKYLPI")
"≥ 29.1 µM"
>>> result("ADVFHLYLQY")
"≥ 20.7 µM"
